Parameter AC50: see the listing below.
- measured-target: human PAH with the R408W mutation (Homo sapiens, UniProt P00439, R408W)
- Construct: expressed in transfected cells
- Sequence (P00439 1-452 R408W): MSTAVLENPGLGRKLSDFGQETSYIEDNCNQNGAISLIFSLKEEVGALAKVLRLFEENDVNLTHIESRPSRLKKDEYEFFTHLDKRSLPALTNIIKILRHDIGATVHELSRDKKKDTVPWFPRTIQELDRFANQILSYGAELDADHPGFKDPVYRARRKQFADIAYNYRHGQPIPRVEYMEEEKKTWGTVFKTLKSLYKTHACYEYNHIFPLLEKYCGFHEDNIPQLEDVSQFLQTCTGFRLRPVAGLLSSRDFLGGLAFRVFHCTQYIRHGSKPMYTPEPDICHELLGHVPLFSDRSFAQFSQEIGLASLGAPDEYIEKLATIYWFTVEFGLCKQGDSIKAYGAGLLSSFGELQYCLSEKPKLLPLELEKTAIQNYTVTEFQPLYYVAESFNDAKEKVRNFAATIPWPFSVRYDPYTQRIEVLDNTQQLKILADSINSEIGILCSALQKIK
- measurement-notes: Cell Based Phenylalanine Flux Assay
- conditions: A375 cells expressing human R408W PAH; 24 hrs compound incubation; 13C-Tyrosine by LC-MS; average where tested multiple times; read-out: AC50
readout-type: AC50

{"columns": ["molecule", "readout-type", "result-value"],
 "data": [
  ["C[C@H]1CN(C(=O)c2nnc(-c3ccc(F)cn3)o2)[C@@H](c2cc3ccccc3cn2)c2nc[nH]c21", "AC50", "1000 to 5000 nM"],
  ["O=C(Cn1cncn1)N1CCc2[nH]cnc2[C@H]1c1cc2ccccc2cn1", "AC50", "500 to 1000 nM"],
  ["COc1ccc(-c2nnc(C(=O)N3CCc4[nH]cnc4[C@H]3c3ncc4ccccc4n3)o2)nc1", "AC50", "< 500 nM"],
  ["O=C(c1nnc(-c2ccncc2)o1)N1CCc2[nH]cnc2[C@@H]1c1ncc2ccccc2n1", "AC50", "> 5000 nM"],
  ["Cc1ncccc1-c1ccc2c(C(=O)N3CCc4[nH]cnc4[C@H]3c3cc4ccccc4cn3)cnn2c1", "AC50", "< 500 nM"],
  ["CC(C)(F)c1nnc(C(=O)N2CCc3[nH]cnc3[C@H]2c2cc3ccccc3cn2)o1", "AC50", "< 500 nM"],
  ["CC(C)(O)c1nnc(C(=O)N2CCc3[nH]cnc3C2c2ccc3ccccc3n2)o1 (stereo in doubt) [Example 28]", "AC50", "1000 to 5000 nM"]
]}

----------
- measured-target: human PAH with the R408W mutation (Homo sapiens, UniProt P00439, R408W)
- Construct: expressed in transfected cells
- Sequence (P00439 1-452 R408W): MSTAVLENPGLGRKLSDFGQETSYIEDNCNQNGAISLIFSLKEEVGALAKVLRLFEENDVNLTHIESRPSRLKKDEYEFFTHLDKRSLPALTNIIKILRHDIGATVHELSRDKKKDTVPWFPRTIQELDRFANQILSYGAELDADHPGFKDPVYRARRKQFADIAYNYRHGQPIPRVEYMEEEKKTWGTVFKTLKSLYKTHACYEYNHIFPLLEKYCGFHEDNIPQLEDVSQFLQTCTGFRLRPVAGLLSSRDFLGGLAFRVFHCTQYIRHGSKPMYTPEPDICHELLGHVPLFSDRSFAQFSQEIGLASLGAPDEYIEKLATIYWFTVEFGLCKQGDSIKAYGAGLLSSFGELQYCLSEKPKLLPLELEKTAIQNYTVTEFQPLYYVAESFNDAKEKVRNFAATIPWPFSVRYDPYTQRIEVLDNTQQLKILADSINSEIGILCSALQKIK
- measurement-notes: Cell Based Phenylalanine Flux Assay
- conditions: A375 R408W cells, 24 hrs with compound, then 20 μM sepiapterin and 800 μM 13C9,15N-Phenylalanine for 4 hours; 13C-Tyrosine by LC-MS; average where tested multiple times; read-out: AC50
Measured AC50 by item
readout-type: AC50

{"columns": ["compound", "result-value"],
 "data": [
  ["Cc1ncoc1C(=O)N1CCc2[nH]cnc2C1c1ccc2ccccc2n1 (stereo not drawn)", "1 to 5 µM"],
  ["O=C(CCc1nccs1)N1CCc2[nH]cnc2C1c1cn2ccccc2n1 (stereo not drawn)", "1 to 5 µM"],
  ["CC(C)(C)c1nnc(C(=O)N2CCc3[nH]cnc3C2c2cc3ccccc3nn2)o1 (stereo not drawn)", "1 to 5 µM"],
  ["O=C(c1nnc(N2CCOCC2)o1)N1CCc2[nH]cnc2C1c1ccc2ccccc2n1 (stereo not drawn)", "> 5 µM"],
  ["O=C(c1ocnc1C(F)F)N1CCc2[nH]cnc2C1c1cc2ccccc2nn1 (stereo not drawn)", "1 to 5 µM"],
  ["O=C(c1nnc(-c2ccccn2)o1)N1CCCc2[nH]cnc2C1c1cn2ccccc2n1 (stereo not drawn)", "> 5 µM"],
  ["O=C(CCc1ccc(F)cc1)N1CCc2[nH]cnc2C1c1ccc2ccccc2c1 (stereo not drawn)", "> 5 µM"],
  ["Cc1nc(N2CCOCC2)oc1C(=O)N1CCc2[nH]cnc2C1c1ccc2ccccc2n1 (stereo not drawn)", "1 to 5 µM"],
  ["CC1CN(C(=O)c2nnc(N3CCC(F)CC3)o2)C(c2cc3ccccc3cn2)c2nc[nH]c21 (stereo not drawn)", "1 to 5 µM"],
  ["Cc1ncoc1CC(=O)N1CCc2[nH]cnc2C1c1cn2ccccc2n1 (stereo not drawn)", "> 5 µM"],
  ["Cc1ncoc1C(=O)N1CC2(CC2)c2[nH]cnc2C1c1cn2ccccc2n1 (stereo not drawn)", "1 to 5 µM"],
  ["O=C(c1n[nH]c2ccccc12)N1CCc2[nH]cnc2C1c1ccc2ccccc2n1 (stereo not drawn)", "1 to 5 µM"],
  ["COCc1ncc(C(=O)N2CCc3[nH]cnc3C2c2ccc3ccccc3n2)s1 (stereo not drawn)", "> 5 µM"],
  ["O=C(c1ocnc1-c1ccccn1)N1CCc2[nH]cnc2C1c1cn2ccccc2n1 (stereo not drawn)", "1 to 5 µM"],
  ["O=C(c1cnc(C(F)(F)F)s1)N1CCc2[nH]cnc2C1c1cn2ccccc2n1 (stereo not drawn)", "1 to 5 µM"],
  ["O=C(c1ocnc1-c1ccccn1)N1CCc2[nH]cnc2C1c1ccc2ccccc2n1 (stereo not drawn)", "1 to 5 µM"],
  ["FC(F)(F)c1cnc(N2CCc3[nH]cnc3C2c2cc3ccccc3cn2)nc1 (stereo not drawn)", "1 to 5 µM"],
  ["O=C(c1nnc(CCN2CC(F)C2)o1)N1CCc2[nH]cnc2[C@H]1c1cc2ccccc2cn1", "1 to 5 µM"],
  ["CC(C)(O)c1ncc(C(=O)N2CCc3[nH]cnc3C2c2cc3ccccc3cn2)o1 (single isomer, unassigned)", "1 to 5 µM"],
  ["O=C(c1cnn(-c2ccccn2)c1Cl)N1CCc2[nH]cnc2C1c1ccc2ccccc2n1 (stereo not drawn)", "> 5 µM"],
  ["COC(C)(C)c1nc(C)c(C(=O)N2CCc3[nH]cnc3C2c2ccc3ccccc3n2)o1 (stereo not drawn)", "1 to 5 µM"],
  ["COC(=O)N1CC(C(=O)N2CCc3[nH]cnc3[C@H]2c2cc3ccccc3cn2)C1", "1 to 5 µM"],
  ["O=C(c1cnc(C(F)F)s1)N1CCc2[nH]cnc2C1c1cn2ccccc2n1 (stereo not drawn)", "1 to 5 µM"],
  ["Cc1nc(-c2cnn(C)c2)oc1C(=O)N1CCc2[nH]cnc2C1c1ncc2ccccc2n1 (stereo not drawn)", "> 5 µM"],
  ["FC(F)c1nnc(N2CCc3[nH]cnc3C2c2ccc3ccccc3n2)o1 (stereo not drawn)", "1 to 5 µM"],
  ["O=C(c1cnn2cc(N3CCC(O)CC3)ccc12)N1CCc2[nH]cnc2C1c1ncc2ccccc2n1 (stereo not drawn)", "1 to 5 µM"],
  ["Cc1nc(C2(O)CC2)oc1C(=O)N1CCc2[nH]cnc2C1c1ccc2ccccc2n1 (stereo not drawn)", "> 5 µM"]
]}
